src = PubChem BioAssay AID1259415

procedure text: qHTS Assay for inhibitors of the human cytomegalovirus (HCMV); further: on the % scale 0 is the no-effect control and ±100 the full control effect
assay context: HFF cells, HCMV-luciferase reporter, 72 h; at 57.5 µM; hits give low values
Among all 410,000 compounds or so, about 18,000 (4.4%) were called active. Not shown: some 7% with an inconclusive outcome. The full list was thinned out, with actives kept by preference.
assay readout: activity change, negative = inhibition (%)
Response body: numeric value in %, unit text excluded.

compound	unit annotation	activity change, negative = inhibition
COc1cc(NC(=O)C2CC(c3ccccc3O)=NO2)c(OC)cc1Cl (stereo unspecified)	%	0.764
CCOC(=O)C1=NOC(Cn2cc(C(C)=O)c(=O)[nH]c2=O)C1 (stereo unspecified)	%	10

Entry "Fc1ccc(CSc2nnc(-c3cc4c(s3)-c3ccccc3CC4)o2)cc1" — recorded activity change, negative = inhibition = 20.4

Briefly, activity change, negative = inhibition measured for "CCOC(=O)c1cc(C(=O)Nc2ccc(S(=O)(=O)Nc3ccc(OC)cc3)cc2)nn1C" : 2.74

---

procedure text: qHTS Assay for inhibitors of the human cytomegalovirus (HCMV); further: on the % scale 0 is the no-effect control and ±100 the full control effect
assay context: HFF cells, HCMV-luciferase reporter, 72 h; at 57.5 µM; hits give low values
The whole screen tested about 410,000 compounds, of which about 18,000 (4.4%) were called active. About 7% were inconclusive and are not listed. Many of the other results were omitted from the sample, so actives are more common in it than they were.
assay readout: activity change, negative = inhibition (%)
# output: bare number, implied unit %

Lookup result for "COc1cccc(C(=O)c2sc3nc(-c4ccccc4)cc(C(F)(F)F)c3c2N)c1" ; measured activity change, negative = inhibition: 7.18

---

procedure text: qHTS Assay for inhibitors of the human cytomegalovirus (HCMV); further: on the % scale 0 is the no-effect control and ±100 the full control effect
assay context: HFF cells, HCMV-luciferase reporter, 72 h; at 57.5 µM; hits give low values
Out of some 410,000 compounds screened, about 18,000 (4.4%) were called active. Roughly 7% stayed inconclusive and do not appear here. This is one part of a sample in which actives are shown more often than they occur.
Friendly reminder: activity change, negative = inhibition below -20% is criterion met, at or above is criterion not met.

Observe how each entry below is paired with its result.
compound	classification
O=[N+]([O-])c1ccc(C(S(=O)(=O)Cc2ccccc2)S(=O)(=O)Cc2ccccc2)cc1	criterion met
CCOc1cc2[nH]c(=O)n(Cc3ccc(C(=O)NCCCN4CCCC4=O)cc3)c(=O)c2cc1OCC	criterion met
Cc1cccc(OCC(=O)N(Cc2ccc(C(C)C)cc2)Cc2ccco2)c1C	criterion not met
O=C1NC(=O)C2C1C(c1ccc([N+](=O)[O-])cc1)=NN2Cc1ccccc1 (stereo not given)	criterion met
COc1cc2[nH]c(=S)n(Cc3ccc(C)o3)c(=O)c2cc1OC	criterion not met

Task item: Record "c1ccc2c(c1)C(=NC1CCCCC1)NC2=NC1CCCCC1" : is its activity change, negative = inhibition strictly below -20%?
Reply: criterion met

Task item: Below -20% on activity change, negative = inhibition? Entry O=C(NCCCCc1ccccc1)C1CC(c2ccc([N+](=O)[O-])cc2)=NO1 (stereo not given)
Reply: criterion not met

Task item: API: query returns whether the compound falls strictly under -20% in activity change, negative = inhibition. Query: CCOc1cc2[nH]c(=S)n(CCN3CCCCC3C)c(=O)c2cc1OCC (stereo not given)
Reply: criterion not met

Task item: Does the reported activity change, negative = inhibition of "Cc1ccc(-n2nc(C)c(C(=O)O)c2-n2cccc2)cc1" stay below -20%?
Reply: criterion not met

Task item: Could you please tell me whether activity change, negative = inhibition recorded for "COc1cccc(CNC(=O)c2cc(=O)[nH]c3ccc(S(=O)(=O)N4CCCCC4)cc23)c1" is less than -20%?
Reply: criterion not met
